Test system: NCI-H650
Assay: relative viability (nuclei count vs DMSO), 5 days (fraction); higher = more cells survive
Details: first compound 0.04 µM
quantity_kind: relative viability
Just the number, please, no unit after it.

- COc1cc(N2CCC(C(N)=O)CC2)ccc1Nc1nc(N)c(Cl)c(Nc2ccccc2S(=O)(=O)C(C)C)n1 [HG-5-88-01] + NC(=O)Nc1cc(-c2cccc(F)c2)sc1C(=O)N[C@H]1CCCNC1 [AZD7762] (partner 0.2 µM): 1.04

API: the following record is the query input.
For record C[C@@H]1CN(CC(=O)Nc2ccc3c(c2)Cc2cccc(-c4cc(=O)cc(N5CCOCC5)o4)c2S3)C[C@H](C)O1 + CS(=O)(=O)N1CCN(Cc2cc3nc(-c4cccc5[nH]ncc45)nc(N4CCOCC4)c3s2)CC1 [Pictilisib] (partner 1 µM) the listed relative viability is 0.828
